targetDesc: rat brain A1 adenosine receptor (Rattus norvegicus)
Sequence (P25099 whole entry): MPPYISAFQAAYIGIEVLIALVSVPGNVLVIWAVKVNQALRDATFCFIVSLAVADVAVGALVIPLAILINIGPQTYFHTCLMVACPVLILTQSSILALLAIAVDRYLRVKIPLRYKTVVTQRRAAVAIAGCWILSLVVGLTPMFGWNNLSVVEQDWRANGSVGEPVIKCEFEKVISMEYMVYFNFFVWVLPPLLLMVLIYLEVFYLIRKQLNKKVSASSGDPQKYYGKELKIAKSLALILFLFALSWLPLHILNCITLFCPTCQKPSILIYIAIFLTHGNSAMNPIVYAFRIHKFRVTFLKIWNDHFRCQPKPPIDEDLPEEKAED
experimentalEndpoint: Ki (nM)

stdin: Please report the recorded Ki for `CCNC(=O)[C@H]1O[C@@H](n2cnc3c(NC(=O)N[C@@H](C)c4ccccc4)ncnc32)[C@H](O)[C@@H]1O` .
stdout: 537

stdin: Ok, now `CCNC(=O)[C@H]1O[C@@H](n2cnc3c(NC(=O)c4ccc(OC)cc4)ncnc32)[C@H](O)[C@@H]1O`
stdout: 86.4

A: CCNC(=O)[C@H]1O[C@@H](n2cnc3c(NC(=O)Nc4nncs4)ncnc32)[C@H](O)[C@@H]1O
B: CCNC(=O)[C@H]1O[C@@H](n2cnc3c(NC(=O)Nc4ccc(S(N)(=O)=O)cc4)ncnc32)[C@H](O)[C@@H]1O
stdin: Ki comparison. Which is larger, A or B ? Answer = label.
stdout: B
(B: 453 nM, A: 208 nM)

P: CCNC(=O)[C@H]1O[C@@H](n2cnc3c(N(C(=O)Nc4ccc(Cl)cn4)C(=O)Nc4ccc(Cl)cn4)ncnc32)[C@H](O)[C@@H]1O
Q: CCNC(=O)[C@H]1O[C@@H](n2cnc3c(NC(=O)Nc4ccc(C(C)=O)cc4)ncnc32)[C@H](O)[C@@H]1O
stdin: Ki comparison. Which is larger, P or Q ? Answer = label.
stdout: P
(P: 761 nM, Q: 72.7 nM)

I: CCNC(=O)[C@H]1O[C@@H](n2cnc3c(NC(=O)Cc4ccc(Cl)cc4Cl)ncnc32)[C@H](O)[C@@H]1O
II: CCNC(=O)[C@H]1O[C@@H](n2cnc3c(NC(=O)N[C@H](C)c4ccccc4)ncnc32)[C@H](O)[C@@H]1O
III: CCNC(=O)[C@H]1O[C@@H](n2cnc3c(NC(=O)c4ccccc4)ncnc32)[C@H](O)[C@@H]1O
IV: CCNC(=O)[C@H]1O[C@@H](n2cnc3c(NC(=O)c4ccc(-c5ccccc5)cc4)ncnc32)[C@H](O)[C@@H]1O
V: CCNC(=O)[C@H]1O[C@@H](n2cnc3c(NC(=O)NCc4ccccc4)ncnc32)[C@H](O)[C@@H]1O
stdin: Order field: Ki | Direction: descending (largest first) I'd appreciate it if you listed the labels in the requested order.
stdout: II, III, V, I, IV
(II: 433 nM, III: 252 nM, V: 171 nM, I: 16 nM, IV: 5.92 nM)
